# System name: human NK-2 receptor (Homo sapiens)
# Construct: expressed in transfected cells; host or cells: CHO-hNK-2R cells (CHO-derived), membrane preparation
# Sequence (P21452 whole entry): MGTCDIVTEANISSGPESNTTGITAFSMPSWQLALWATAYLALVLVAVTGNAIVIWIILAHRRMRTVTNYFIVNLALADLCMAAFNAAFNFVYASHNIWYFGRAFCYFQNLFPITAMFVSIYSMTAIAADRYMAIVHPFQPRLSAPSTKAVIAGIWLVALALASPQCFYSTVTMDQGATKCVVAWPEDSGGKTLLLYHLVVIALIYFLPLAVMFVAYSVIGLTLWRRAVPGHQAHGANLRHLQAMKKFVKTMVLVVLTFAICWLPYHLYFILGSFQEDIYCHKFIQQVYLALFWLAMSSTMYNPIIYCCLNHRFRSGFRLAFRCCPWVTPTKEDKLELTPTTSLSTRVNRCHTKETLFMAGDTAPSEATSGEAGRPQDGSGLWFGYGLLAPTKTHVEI
# Method: NK-2 Receptor Binding Assay (CHO-hNK-2R membranes, iodohistidyl-neurokinin A)
# Condition description: inhibition of neurokinin A binding at ten micromolar, read-out: Percent Inhibition @ 10 μM
Recorded metric: inhibition at 10 µM (%)

// worked examples, inhibition at 10 µM included
COc1cc(-c2nc3ccccc3n2Cc2ccccc2F)cc(OC)c1OC :: 44.2
Cc1cccc(-c2nc3ccccc3n2Cc2ccc(Cl)c(Cl)c2)c1 :: 58.7
COc1cc(-c2nc3ccccc3n2Cc2cccc(C)c2)cc(OC)c1OC :: 52.9
CCN(CCOc1ccc2nc(-c3cccc(C)c3)n(Cc3ccccc3)c2c1)c1ccccc1 :: 34
Cc1cccc(-c2nc3ccc(OCCN4CCCC4)cc3n2Cc2ccccc2)c1 :: 48.5
Cc1cccc(-c2nc3ccc(OCCN4CCCCC4)cc3n2Cc2ccccc2)c1 :: 73.1
COc1cc(-c2nc3ccccc3n2Cc2cccc(Cl)c2)cc(OC)c1OC :: 55

[a] COc1cc(-c2nc3ccccc3n2Cc2ccccc2C)cc(OC)c1OC
[b] Cc1cccc(-c2nc3ccccc3n2Cc2ccc(Cl)cc2)c1
Between a and b , which one has the lower reported inhibition at 10 µM value? # respond with the chosen item's label
b
(b: 42.9%, a: 68.4%)
